From: paper PMC4360782

Target: T1, TerR35-138 (Aspergillus terreus SBUG844, UniProt Q0D1P5 35-138)
T1 sequence: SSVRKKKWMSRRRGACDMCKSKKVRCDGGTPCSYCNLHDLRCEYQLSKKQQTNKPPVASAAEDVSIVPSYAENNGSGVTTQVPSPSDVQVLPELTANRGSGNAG
Assay: SPR; molar ratio 1.19; SPR (Biacore 2000, SA-coated CM3 chip): 10 mM HEPES pH 7.4, 150 mM NaCl, 0.005% P20, 5 mM beta-mercaptoethanol, 1 uM ZnCl2, 25 C; protein 12.5-6400 nM; 1:1 model with mass transport
Details: protein: recombinant; (pET-29a; theoretical mass 11.35 kDa); label: biotin on one strand; 18 bp duplex
metric_name: Kd (nM)
Field: numeric (nM). Do not append units.

QUERY: Please indicate Kd recorded for BS4m2 (C directly after 5'-CGG to G) (dsDNA) DNA 1: TCTTCGGGAATACGGACT DNA 2: AGTCCGTATTCCCGAAGA
RESULT: 155
